- Tested on: Human papillomavirus type 1a protein E7 (residues 44-93)
- Experiment description: HPV1a E7 fragment binders on microarrays, primary screen, biochemical, small-molecule microarray, residues 44-93, 635 nm fluorescence (AID 1108);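 further: E7 fragment applied at 1 µg/mL in TBST for 1 h at 4 C; score combines spot fluorescence with its signal to noise ratio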
- Condition info: small-molecule microarray binding, fluorescence 635 nm; higher = more signal
Quick reference for composite z-score among some compounds

See these solved cases before continuing.
Name the recorded composite z-score of the compound listed here: CC(=O)OC[C@H]1O[C@H](C#CCCc2ccccc2)C=C[C@@H]1OC(C)=O
-0.515

Name the recorded composite z-score of the compound listed here: CC(=O)OC[C@H]1O[C@H](CC=NO[C@H](C)c2cn([C@@H]3COC[C@H]3O)nn2)C=C[C@@H]1OC(C)=O
-0.535

New cases:
Name the recorded composite z-score of the compound listed here: CC(=O)OC[C@H]1O[C@H](CC=NOC[C@@H](O)COCc2ccco2)C=C[C@@H]1OC(C)=O
-0.646

Name the recorded composite z-score of the compound listed here: CCOC(=O)[C@H](CC(C)C)NC(=O)CCC1CC(OC(=O)NCCc2ccc(F)cc2)CC2(CCCC(COC(=O)NCCOC)O2)O1 (stereo partly specified)
1.34

Name the recorded composite z-score of the compound listed here: O=C1[C@H]2[C@H]3[C@H](O)[C@H](O)CC(=NOC[C@@H](O)COCc4ccco4)[C@@H]3CC[C@H]2C(=O)N1c1cccc(Oc2ccccc2)c1
-0.645

Name the recorded composite z-score of the compound listed here: COC(=O)[C@H](C)NC(=O)CCC1CC(OC(=O)NCc2ccc3c(c2)OCO3)CC2(CCCC(COC(=O)NCCC(C)C)O2)O1 (stereo partly specified)
1.37

====

- Experiment description: fission yeast growth modulation, primary screen, strain 972, OD600, 24 h, no modulator (AID 1090);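 further: basal condition with compound alone and no growth modifier present; test concentration not given here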
- Condition info: S. pombe 972 growth, higher = more signal, called active from +8 up or from −8 down
Threshold rule: z-score greater than or equal to -0.02 is 1; below that, -1.

// below: answered molecules
Does z-score meet or surpass -0.02 for O=C1C=C[C@@H](O)[C@@H]2[C@@H]3C(=O)N(c4cccc(Oc5ccccc5)c4)C(=O)[C@@H]3CC[C@@H]12 ?
-1

Does z-score meet or surpass -0.02 for C[C@@H]1C=CCC(=O)OC[C@H](C)C(=O)N[C@@H](Cc2ccccc2)C(=O)OC1 ?
-1

Does z-score meet or surpass -0.02 for CC(=O)OC[C@H]1O[C@@H](ON=C2[C@H]3CCn4c(=O)n(-c5ccccc5)c(=O)n4[C@H]3[C@H](O)[C@@H]3O[C@H]23)[C@H](OC(C)=O)[C@@H](OC(C)=O)[C@@H]1OC(C)=O ?
-1

Does z-score meet or surpass -0.02 for COC(=O)[C@H](C)NC(=O)CCC1CC(OC(=O)NCc2cccc3ccccc23)CC2(CCCC(COC(=O)NCCOc3ccccc3)O2)O1 (stereo partly drawn) ?
-1

New cases:
Does z-score meet or surpass -0.02 for CC(CCN1CCCc2nc(C)c(C)cc21)=NOC[C@@H](O)COCc1ccco1 ?
1

Does z-score meet or surpass -0.02 for CCOC(=O)[C@H](CC(C)C)NC(=O)CCC1CC(OC(=O)NCCc2ccc(F)cc2)CC2(CCCC(COC(=O)NCCOC)O2)O1 (stereo partly drawn) ?
1

Does z-score meet or surpass -0.02 for CO[C@@H](C(C)C)[C@@H](C)C1OC(=O)CC1O (stereo partly drawn) ?
1

Data origin: PubChem BioAssay
